SUBJECT OF TEST: DNA gyrase (Staphylococcus aureus) (UniProt P0A0K8+P20831)
Sequence (P0A0K8 2-644 limits assumed): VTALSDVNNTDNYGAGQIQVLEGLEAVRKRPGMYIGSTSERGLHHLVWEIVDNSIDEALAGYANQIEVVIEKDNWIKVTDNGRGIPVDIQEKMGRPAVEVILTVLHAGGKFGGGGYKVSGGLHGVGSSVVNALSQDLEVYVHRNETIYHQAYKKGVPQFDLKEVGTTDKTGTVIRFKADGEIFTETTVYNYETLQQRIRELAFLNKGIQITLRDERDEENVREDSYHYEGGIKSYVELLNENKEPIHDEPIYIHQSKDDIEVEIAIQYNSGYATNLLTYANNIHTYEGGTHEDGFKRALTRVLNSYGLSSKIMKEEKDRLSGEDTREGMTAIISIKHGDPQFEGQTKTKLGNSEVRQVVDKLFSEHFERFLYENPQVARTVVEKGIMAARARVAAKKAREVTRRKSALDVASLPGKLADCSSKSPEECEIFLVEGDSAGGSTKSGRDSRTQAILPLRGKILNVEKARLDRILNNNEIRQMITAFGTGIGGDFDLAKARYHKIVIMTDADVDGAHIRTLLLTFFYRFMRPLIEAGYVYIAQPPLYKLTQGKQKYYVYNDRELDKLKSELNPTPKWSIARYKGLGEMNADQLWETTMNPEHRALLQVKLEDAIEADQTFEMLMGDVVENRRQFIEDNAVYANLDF
Sequence (P20831 whole entry partner): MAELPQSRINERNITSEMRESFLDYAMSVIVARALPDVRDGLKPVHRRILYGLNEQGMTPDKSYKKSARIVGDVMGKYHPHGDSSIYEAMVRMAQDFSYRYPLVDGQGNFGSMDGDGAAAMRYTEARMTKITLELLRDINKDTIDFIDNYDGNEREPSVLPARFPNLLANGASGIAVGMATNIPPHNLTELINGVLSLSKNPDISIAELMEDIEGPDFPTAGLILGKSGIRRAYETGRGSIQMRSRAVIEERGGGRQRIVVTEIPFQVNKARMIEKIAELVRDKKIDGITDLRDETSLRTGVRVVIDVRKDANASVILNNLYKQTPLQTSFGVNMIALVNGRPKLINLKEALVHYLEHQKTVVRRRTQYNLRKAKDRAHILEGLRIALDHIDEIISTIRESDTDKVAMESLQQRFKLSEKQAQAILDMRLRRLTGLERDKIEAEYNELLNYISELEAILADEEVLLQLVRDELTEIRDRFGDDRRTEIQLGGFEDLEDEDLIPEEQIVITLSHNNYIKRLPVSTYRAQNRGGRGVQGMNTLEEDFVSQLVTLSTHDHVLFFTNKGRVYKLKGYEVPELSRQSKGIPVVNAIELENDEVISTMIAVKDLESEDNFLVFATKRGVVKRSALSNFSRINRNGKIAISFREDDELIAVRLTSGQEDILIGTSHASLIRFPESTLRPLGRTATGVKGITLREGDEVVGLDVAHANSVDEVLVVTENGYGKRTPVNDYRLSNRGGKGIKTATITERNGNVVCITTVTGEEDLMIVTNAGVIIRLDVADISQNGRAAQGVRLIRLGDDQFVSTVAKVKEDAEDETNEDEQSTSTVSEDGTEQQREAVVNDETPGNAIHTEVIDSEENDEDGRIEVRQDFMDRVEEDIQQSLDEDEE
TEST DESCRIPTION: Inhibition of Staphylococcus aureus DNA gyrase assessed as enzyme residual activity at 10 uM using relaxed pNO1 plasmid DNA as substrate incubated for 30 mins by fluorescence assay relative to control
Assay type: protein-complex assay
Activity values by entry

>  <COMPOUND STRUCTURE STRING>
COC(=O)CC(=O)Nc1ccc2nc(NC(=O)c3cc(Br)c(Br)[nH]3)[nH]c2c1

>  <Activity>
100%

$$$$
>  <COMPOUND STRUCTURE STRING>
Cc1[nH]c(C(=O)Nc2nc3ccc(NC(=O)c4ccncc4)cc3s2)c(Cl)c1Cl

>  <Activity>
100%

$$$$
>  <COMPOUND STRUCTURE STRING>
O=C(O)CC(=O)Nc1ccc2nc(NC(=O)c3cc(Br)c(Br)[nH]3)[nH]c2c1

>  <Activity>
100%

$$$$

---

IC50 values by entry
SUBJECT OF TEST: Topoisomerase IV (Staphylococcus aureus, UniProt P0C1S7+P0C1U9)
Sequence (P0C1U9 whole entry): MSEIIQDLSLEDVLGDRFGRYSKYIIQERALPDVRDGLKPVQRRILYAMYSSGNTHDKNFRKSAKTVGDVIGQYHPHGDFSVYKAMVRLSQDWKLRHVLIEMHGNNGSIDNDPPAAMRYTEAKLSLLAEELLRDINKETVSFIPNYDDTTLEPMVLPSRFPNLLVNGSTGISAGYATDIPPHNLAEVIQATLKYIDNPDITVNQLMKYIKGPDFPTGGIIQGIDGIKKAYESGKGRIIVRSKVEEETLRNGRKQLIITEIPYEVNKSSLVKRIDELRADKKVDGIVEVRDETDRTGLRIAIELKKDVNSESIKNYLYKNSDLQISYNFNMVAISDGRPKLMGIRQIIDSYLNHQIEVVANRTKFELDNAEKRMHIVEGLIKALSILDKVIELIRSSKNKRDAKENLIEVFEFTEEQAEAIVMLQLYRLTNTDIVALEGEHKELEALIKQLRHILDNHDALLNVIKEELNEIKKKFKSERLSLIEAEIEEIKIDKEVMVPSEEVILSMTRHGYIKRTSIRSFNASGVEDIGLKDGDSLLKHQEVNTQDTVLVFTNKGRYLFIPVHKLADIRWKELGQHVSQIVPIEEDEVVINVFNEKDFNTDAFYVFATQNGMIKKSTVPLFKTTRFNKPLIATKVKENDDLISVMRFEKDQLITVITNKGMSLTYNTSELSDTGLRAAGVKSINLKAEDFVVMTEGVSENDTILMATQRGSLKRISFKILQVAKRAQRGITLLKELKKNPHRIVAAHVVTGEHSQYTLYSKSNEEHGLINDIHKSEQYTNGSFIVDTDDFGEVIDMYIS
Sequence (P0C1S7 whole entry): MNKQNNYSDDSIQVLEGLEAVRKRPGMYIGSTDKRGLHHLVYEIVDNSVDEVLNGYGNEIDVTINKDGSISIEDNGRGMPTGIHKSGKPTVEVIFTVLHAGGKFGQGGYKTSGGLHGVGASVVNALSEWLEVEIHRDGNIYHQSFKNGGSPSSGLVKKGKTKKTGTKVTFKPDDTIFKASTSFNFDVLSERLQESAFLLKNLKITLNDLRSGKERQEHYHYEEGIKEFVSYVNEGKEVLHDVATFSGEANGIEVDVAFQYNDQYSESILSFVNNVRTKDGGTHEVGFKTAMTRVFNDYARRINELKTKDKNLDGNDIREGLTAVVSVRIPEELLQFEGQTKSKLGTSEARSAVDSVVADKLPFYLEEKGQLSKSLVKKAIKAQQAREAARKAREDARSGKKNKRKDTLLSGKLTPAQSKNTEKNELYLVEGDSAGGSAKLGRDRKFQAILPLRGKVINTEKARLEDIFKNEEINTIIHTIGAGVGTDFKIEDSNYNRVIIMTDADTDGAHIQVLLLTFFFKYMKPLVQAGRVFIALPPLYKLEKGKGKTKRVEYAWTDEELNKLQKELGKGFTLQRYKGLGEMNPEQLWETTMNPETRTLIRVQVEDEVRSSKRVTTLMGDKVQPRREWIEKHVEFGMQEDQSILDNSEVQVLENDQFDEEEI
TEST DESCRIPTION: Inhibition of Staphylococcus aureus DNA topoisomerase 4 using supercoiled pNO1 plasmid DNA as substrate incubated for 30 mins by fluorescence assay
Assay type: protein-complex assay
READOUT: IC50

>  <COMPOUND STRUCTURE STRING>
Cc1[nH]c(C(=O)Nc2nc3ccc(NC(=O)C(=O)O)cc3s2)c(Cl)c1Cl

>  <READOUT>
IC50

>  <ENDPOINT RESULT>
290 nM

$$$$
>  <COMPOUND STRUCTURE STRING>
O=C(O)C(=O)Nc1ccc2nc(NC(=O)c3cc(Br)c(Br)[nH]3)[nH]c2c1

>  <READOUT>
IC50

>  <ENDPOINT RESULT>
31000 nM

$$$$
>  <COMPOUND STRUCTURE STRING>
Cc1[nH]c(C(=O)Nc2nc3ccc(NC(=O)CCN)cc3s2)c(Cl)c1Cl

>  <READOUT>
IC50

>  <ENDPOINT RESULT>
290 nM

$$$$
>  <COMPOUND STRUCTURE STRING>
O=C(O)C(=O)Nc1ccc2nc(NC(=O)c3cc(Br)c(Br)[nH]3)sc2c1

>  <READOUT>
IC50

>  <ENDPOINT RESULT>
10000 nM

$$$$
>  <COMPOUND STRUCTURE STRING>
CC(=O)Nc1ccc2nc(NC(=O)c3[nH]c(C)c(Cl)c3Cl)sc2c1

>  <READOUT>
IC50

>  <ENDPOINT RESULT>
1600 nM

$$$$
>  <COMPOUND STRUCTURE STRING>
Cc1[nH]c(C(=O)Nc2ccc3nc(NC(=O)C(=O)O)sc3c2)c(Cl)c1Cl

>  <READOUT>
IC50

>  <ENDPOINT RESULT>
910 nM

$$$$
>  <COMPOUND STRUCTURE STRING>
Cc1[nH]c(C(=O)Nc2nc3ccc(NC(N)=O)cc3s2)c(Cl)c1Cl

>  <READOUT>
IC50

>  <ENDPOINT RESULT>
5800 nM

$$$$

---

SUBJECT OF TEST: DNA gyrase (Staphylococcus aureus, UniProt P0A0K8+P20831)
Sequence (P0A0K8 whole entry, one chain of several): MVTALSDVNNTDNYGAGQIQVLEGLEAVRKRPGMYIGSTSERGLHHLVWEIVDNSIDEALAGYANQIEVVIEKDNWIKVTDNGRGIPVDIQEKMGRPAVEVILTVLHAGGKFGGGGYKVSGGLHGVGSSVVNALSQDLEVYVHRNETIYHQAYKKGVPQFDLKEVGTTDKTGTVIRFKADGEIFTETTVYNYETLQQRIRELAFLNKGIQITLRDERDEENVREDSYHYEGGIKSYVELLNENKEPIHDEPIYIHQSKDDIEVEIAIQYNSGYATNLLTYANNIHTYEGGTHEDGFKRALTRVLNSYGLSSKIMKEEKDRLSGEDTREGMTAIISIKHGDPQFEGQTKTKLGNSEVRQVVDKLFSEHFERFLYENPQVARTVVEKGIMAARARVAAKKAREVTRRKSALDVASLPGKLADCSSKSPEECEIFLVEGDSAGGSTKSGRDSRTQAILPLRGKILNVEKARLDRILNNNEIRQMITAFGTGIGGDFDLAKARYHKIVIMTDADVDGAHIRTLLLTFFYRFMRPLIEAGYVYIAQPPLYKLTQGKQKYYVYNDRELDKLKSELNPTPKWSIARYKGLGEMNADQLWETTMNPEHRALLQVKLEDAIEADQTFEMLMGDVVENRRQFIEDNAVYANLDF
TEST DESCRIPTION: Inhibition of Staphylococcus aureus DNA gyrase using relaxed pNO1 plasmid DNA as substrate incubated for 30 mins by fluorescence assay
pIC50: −log10 of the molar value.
pIC50 values by entry
READOUT: pIC50

>  <COMPOUND STRUCTURE STRING>
Cc1[nH]c(C(=O)Nc2nc3ccc(NC(=O)CCNC(=O)OC(C)(C)C)cc3s2)c(Cl)c1Cl

>  <READOUT>
pIC50

>  <ENDPOINT RESULT>
6.11

$$$$
>  <COMPOUND STRUCTURE STRING>
Cc1[nH]c(C(=O)Nc2nc3ccc(NC(=O)CN)cc3s2)c(Cl)c1Cl

>  <READOUT>
pIC50

>  <ENDPOINT RESULT>
6.42

$$$$
>  <COMPOUND STRUCTURE STRING>
Cc1[nH]c(C(=O)Nc2nc3ccc(NC(=O)CNC(=O)OC(C)(C)C)cc3s2)c(Cl)c1Cl

>  <READOUT>
pIC50

>  <ENDPOINT RESULT>
6.59

$$$$
>  <COMPOUND STRUCTURE STRING>
Cc1[nH]c(C(=O)Nc2ccc3nc(NC(=O)C(=O)O)sc3c2)c(Cl)c1Cl

>  <READOUT>
pIC50

>  <ENDPOINT RESULT>
6.60

$$$$

---

Activity values by entry
SUBJECT OF TEST: DNA gyrase (Staphylococcus aureus) (UniProt P0A0K8+P20831)
TEST DESCRIPTION: Inhibition of Staphylococcus aureus DNA gyrase assessed as enzyme residual activity at 10 uM using relaxed pNO1 plasmid DNA as substrate incubated for 30 mins by fluorescence assay relative to control
Assay type: protein-complex assay
READOUT: Activity (%)

>  <COMPOUND STRUCTURE STRING>
CCOC(=O)C(=O)Nc1nc2ccc(NC(=O)c3[nH]c(C)c(Cl)c3Cl)cc2s1

>  <ENDPOINT RESULT>
69

$$$$
>  <COMPOUND STRUCTURE STRING>
Cc1[nH]c(C(=O)Nc2nc3ccc(N)cc3s2)c(Cl)c1Cl

>  <ENDPOINT RESULT>
60

$$$$
>  <COMPOUND STRUCTURE STRING>
CCOC(=O)C(=O)Nc1ccc2nc(NC(=O)c3[nH]c(C)c(Cl)c3Cl)sc2c1

>  <ENDPOINT RESULT>
100

$$$$
>  <COMPOUND STRUCTURE STRING>
CCOC(=O)C(=O)Nc1ccc2nc(NC(=O)c3cc(Br)c(Br)[nH]3)[nH]c2c1

>  <ENDPOINT RESULT>
100

$$$$
>  <COMPOUND STRUCTURE STRING>
COC(=O)CC(=O)Nc1nc2ccc(NC(=O)c3[nH]c(C)c(Cl)c3Cl)cc2s1

>  <ENDPOINT RESULT>
59

$$$$

---

log10 of IC50 values by entry
SUBJECT OF TEST: DNA gyrase (Escherichia coli, UniProt P0AES4+P0AES6)
TEST DESCRIPTION: Inhibition of Escherichia coli DNA gyrase using relaxed pNO1 plasmid DNA as substrate incubated for 30 mins by fluorescence assay
Assay type: protein-complex assay
READOUT: log10 of IC50 (log10 of the value in nM)

>  <COMPOUND STRUCTURE STRING>
Cc1[nH]c(C(=O)Nc2nc3ccc(NC(=O)CN)cc3s2)c(Cl)c1Cl

>  <log10 of IC50>
2.45

$$$$
>  <COMPOUND STRUCTURE STRING>
COC(=O)CC(=O)Nc1nc2ccc(NC(=O)c3[nH]c(C)c(Cl)c3Cl)cc2s1

>  <log10 of IC50>
2.30

$$$$
>  <COMPOUND STRUCTURE STRING>
CCOC(=O)C(=O)Nc1nc2ccc(NC(=O)c3[nH]c(C)c(Cl)c3Cl)cc2s1

>  <log10 of IC50>
2.46

$$$$
>  <COMPOUND STRUCTURE STRING>
Cc1[nH]c(C(=O)Nc2ccc3nc(NC(=O)C(=O)O)sc3c2)c(Cl)c1Cl

>  <log10 of IC50>
1.46

$$$$
>  <COMPOUND STRUCTURE STRING>
O=C(O)C(=O)Nc1ccc2nc(NC(=O)c3cc(Br)c(Br)[nH]3)[nH]c2c1

>  <log10 of IC50>
2.78

$$$$
>  <COMPOUND STRUCTURE STRING>
CC(=O)Nc1nc2ccc(NC(=O)c3[nH]c(C)c(Cl)c3Cl)cc2s1

>  <log10 of IC50>
1.82

$$$$
>  <COMPOUND STRUCTURE STRING>
Cc1[nH]c(C(=O)Nc2nc3ccc(NC(=O)CCN)cc3s2)c(Cl)c1Cl

>  <log10 of IC50>
2.04

$$$$
>  <COMPOUND STRUCTURE STRING>
Cc1[nH]c(C(=O)Nc2nc3ccc(N)cc3s2)c(Cl)c1Cl

>  <log10 of IC50>
4.20

$$$$

Attribution: ChEMBL document CHEMBL4665899
